# system: Matrix-associated proTGFb1 (hLTBP1, hLTBP3)
# measurementDescription: BLI (OCTET), average over matrix-associated complexes
# Assay type: binding, human
# particulars: average KD of (B) and (C), read-out: (D) ECM AVRG
testReadout: pKd
In simple prose, pKd is minus the logarithm base ten of a concentration in moles per litre.

Consider the molecule Ab32: proTGFβ1 antibody; VH SEQ ID NO: 140, VL SEQ ID NO: 15 (antibody, V domains shown) VH: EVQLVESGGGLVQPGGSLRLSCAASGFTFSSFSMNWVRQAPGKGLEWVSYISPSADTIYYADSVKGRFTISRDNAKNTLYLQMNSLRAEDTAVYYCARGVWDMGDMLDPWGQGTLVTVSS VL: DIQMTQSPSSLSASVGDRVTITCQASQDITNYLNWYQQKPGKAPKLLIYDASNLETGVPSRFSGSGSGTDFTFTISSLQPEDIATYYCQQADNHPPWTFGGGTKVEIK and give its measured pKd.
9.62

Consider the molecule Ab28: proTGFβ1 antibody; VH SEQ ID NO: 136, VL SEQ ID NO: 15 (antibody, V domains shown) VH: EVQLVESGGGLVQPGGSLRLSCAASGFTFSSFSMDWVRQAPGKGLEWVSYISPDASTIYYADSVKGRFTISRDNAKNSLYLQMNSLRAEDTAVYYCVRGVLDYGDMLDPWGQGTLVTVSS VL: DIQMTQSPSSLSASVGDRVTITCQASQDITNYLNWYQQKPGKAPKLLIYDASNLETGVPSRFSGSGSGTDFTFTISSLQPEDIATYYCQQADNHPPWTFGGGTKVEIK and give its measured pKd.
9.48

Consider the molecule Ab23: proTGFβ1 antibody; VH SEQ ID NO: 131, VL SEQ ID NO: 15 (antibody, V domains shown) VH: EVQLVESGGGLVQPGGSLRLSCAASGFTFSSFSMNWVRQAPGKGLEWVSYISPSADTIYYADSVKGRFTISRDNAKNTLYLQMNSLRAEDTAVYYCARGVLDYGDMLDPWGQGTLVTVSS VL: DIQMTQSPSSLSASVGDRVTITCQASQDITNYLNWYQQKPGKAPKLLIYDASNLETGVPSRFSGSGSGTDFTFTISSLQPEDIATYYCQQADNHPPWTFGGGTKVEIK and give its measured pKd.
9.35

Consider the molecule Ab31: proTGFβ1 antibody; VH SEQ ID NO: 139, VL SEQ ID NO: 15 (antibody, V domains shown) VH: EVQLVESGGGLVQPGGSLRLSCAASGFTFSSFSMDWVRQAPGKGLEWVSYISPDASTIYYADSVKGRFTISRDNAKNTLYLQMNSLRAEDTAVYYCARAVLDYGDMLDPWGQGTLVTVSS VL: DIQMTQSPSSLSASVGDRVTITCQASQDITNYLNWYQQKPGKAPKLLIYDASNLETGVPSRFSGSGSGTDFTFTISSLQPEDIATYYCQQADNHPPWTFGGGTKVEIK and give its measured pKd.
9.68

Consider the molecule Ab27: proTGFβ1 antibody; VH SEQ ID NO: 135, VL SEQ ID NO: 15 (antibody, V domains shown) VH: EVQLVESGGGLVQPGGSLRLSCAASGFTFSFYAMNWVRQAPGKGLEWVSYISPDASTIYYADSVKGRFTISRDNAKNSLYLQMNSLRAEDTAVYYCARGVLDYGDMLDPWGQGTLVTVSS VL: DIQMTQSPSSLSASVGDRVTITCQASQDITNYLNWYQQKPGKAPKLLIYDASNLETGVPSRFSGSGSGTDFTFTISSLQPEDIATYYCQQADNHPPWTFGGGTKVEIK and give its measured pKd.
9.68
